# tested-system: Peroxisome proliferator-activated receptor gamma (Homo sapiens, UniProt P37231)
# Sequence (P37231 whole entry): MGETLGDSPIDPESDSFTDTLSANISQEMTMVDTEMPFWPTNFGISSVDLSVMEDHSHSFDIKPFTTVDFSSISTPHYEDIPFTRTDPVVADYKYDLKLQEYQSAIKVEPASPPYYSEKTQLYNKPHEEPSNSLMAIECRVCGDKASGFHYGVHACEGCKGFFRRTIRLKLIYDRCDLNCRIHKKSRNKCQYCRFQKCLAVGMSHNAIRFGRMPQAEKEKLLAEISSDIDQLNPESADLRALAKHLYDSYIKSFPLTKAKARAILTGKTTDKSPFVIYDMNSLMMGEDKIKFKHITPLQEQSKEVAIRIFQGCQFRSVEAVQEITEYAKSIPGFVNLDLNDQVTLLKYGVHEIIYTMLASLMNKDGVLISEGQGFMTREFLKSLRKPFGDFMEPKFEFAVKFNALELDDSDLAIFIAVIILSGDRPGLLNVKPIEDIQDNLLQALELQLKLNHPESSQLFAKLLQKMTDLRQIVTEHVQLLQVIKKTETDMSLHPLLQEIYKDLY
# method: Displacement of Fluormone from PPAR gamma
property-measured: IC50 (nM)
Answers are plain numbers, in nM.

Recorded IC50, per entry:
> print(dat)
                               given.smiles  property.measured  measured.result
1  COc1ccc(-c2c(C(=O)NS(=O)(=O)c3cccc(C(F)(F)F)c3)n(Cc3cccc(C(F)(F)F)c3)c3ccccc23)cc1               IC50               60
2  O=C(NS(=O)(=O)c1cccc(C(F)(F)F)c1)c1cc2ccccc2n1Cc1ccccc1               IC50              280
3  Cc1ccc(S(=O)(=O)NC(=O)c2cc3ccccc3n2Cc2cccc(C(F)(F)F)c2)cc1               IC50              290

Exercise: For the compound shown here, "O=C(NS(=O)(=O)c1cccc(C(F)(F)F)c1)c1cc2cc(O)ccc2n1Cc1cccc(C(F)(F)F)c1" , give the reported IC50.
Key: 540

----------
# tested-system: Peroxisome proliferator-activated receptor gamma (Homo sapiens, UniProt P37231)
# method: Displacement of Fluormone from PPAR gamma
property-measured: log10(IC50) (log10 of the value in nM)
// stored as log10 of IC50 expressed in nM

Example compounds with recorded log10(IC50):
> print(dat)
                               given.smiles                             tested.system  property.measured  measured.result
1  CS(=O)(=O)NC(=O)c1cc2ccccc2n1Cc1cccc(C(F)(F)F)c1  Peroxisome proliferator-activated receptor gamma (Homo sapiens, UniProt P37231)        log10(IC50)             2.83
2  O=C(NS(=O)(=O)c1cccc(C(F)(F)F)c1)c1cc2ccccc2n1Cc1cccc(OC(F)(F)F)c1  Peroxisome proliferator-activated receptor gamma (Homo sapiens, UniProt P37231)        log10(IC50)             1.95
3  O=C(NS(=O)(=O)c1cccc(C(F)(F)F)c1)c1cc2ccccc2n1Cc1cccc(C(F)(F)F)c1  Peroxisome proliferator-activated receptor gamma (Homo sapiens, UniProt P37231)        log10(IC50)             1.90
4  COC(=O)c1ccccc1S(=O)(=O)NC(=O)c1c(-c2ccc(OC)cc2)c2ccccc2n1Cc1cccc(C(F)(F)F)c1  Peroxisome proliferator-activated receptor gamma (Homo sapiens, UniProt P37231)        log10(IC50)             0.00
5  CCn1c(C(=O)NS(=O)(=O)c2cccc(C(F)(F)F)c2)cc2ccccc21  Peroxisome proliferator-activated receptor gamma (Homo sapiens, UniProt P37231)        log10(IC50)             3.39
6  O=C(NS(=O)(=O)c1ccc(Cl)cc1)c1cc2ccccc2n1Cc1cccc(C(F)(F)F)c1  Peroxisome proliferator-activated receptor gamma (Homo sapiens, UniProt P37231)        log10(IC50)             2.45
7  O=C(NS(=O)(=O)c1ccc(F)cc1)c1cc2ccccc2n1Cc1cccc(C(F)(F)F)c1  Peroxisome proliferator-activated receptor gamma (Homo sapiens, UniProt P37231)        log10(IC50)             2.86
8  O=C(NS(=O)(=O)c1cccc(C(F)(F)F)c1)c1cc2ccccc2n1C(=O)c1cccc(C(F)(F)F)c1  Peroxisome proliferator-activated receptor gamma (Homo sapiens, UniProt P37231)        log10(IC50)             3.97

# per-item lookup of log10(IC50); items listed below
1. O=C(NS(=O)(=O)c1ccccc1)c1cc2ccccc2n1Cc1cccc(C(F)(F)F)c1
2. O=C(NS(=O)(=O)c1ccc(Cl)s1)c1cc2ccccc2n1Cc1cccc(C(F)(F)F)c1
3. O=C(NS(=O)(=O)c1cccc(C(F)(F)F)c1)c1cc2cc(Cl)ccc2n1Cc1cccc(C(F)(F)F)c1
4. COc1cccc(Cn2c(C(=O)NS(=O)(=O)c3cccc(C(F)(F)F)c3)cc3ccccc32)c1
5. COc1ccc(-c2c(C(=O)NS(C)(=O)=O)n(Cc3cccc(C(F)(F)F)c3)c3ccccc23)cc1
6. O=C(NS(=O)(=O)c1cccc(C(F)(F)F)c1)c1cc2cc(OCc3ccccc3)ccc2n1Cc1cccc(C(F)(F)F)c1
7. COc1ccc(-c2c(C(=O)NS(=O)(=O)c3ccccc3C)n(Cc3cccc(C(F)(F)F)c3)c3ccccc23)cc1
8. COc1ccc(-c2c(C(=O)NS(=O)(=O)c3ccc(F)cc3)n(Cc3cccc(C(F)(F)F)c3)c3ccccc23)cc1

Key:
1: 2.46; 2: 1.90; 3: 2.52; 4: 2.15; 5: 0.30; 6: 2.89; 7: 0.85; 8: 0.85

For every item in the list below, what is its measured log10(IC50)?
1. O=C(NS(=O)(=O)c1cccc(C(F)(F)F)c1)c1cc2ccccc2n1Cc1cc(Cl)ccc1Cl
2. O=C(NS(=O)(=O)c1ccccc1C(F)(F)F)c1cc2ccccc2n1Cc1cccc(C(F)(F)F)c1
3. CC(C)(C)c1ccc(Cn2c(C(=O)NS(=O)(=O)c3cccc(C(F)(F)F)c3)cc3ccccc32)cc1
4. O=C(NS(=O)(=O)c1cccc(C(F)(F)F)c1)c1cc2ccccc2n1Cc1cccc(OCc2ccccc2)c1
5. O=C(NS(=O)(=O)c1cccc(C(F)(F)F)c1)c1cc2ccccc2n1Cc1ccc(C(F)(F)F)cc1
6. O=C(NS(=O)(=O)c1ccc2ccccc2c1)c1cc2ccccc2n1Cc1cccc(C(F)(F)F)c1
7. Cc1ccccc1S(=O)(=O)NC(=O)c1cc2ccccc2n1Cc1cccc(C(F)(F)F)c1

Key:
1. 2.58
2. 1.90
3. 2.52
4. 1.70
5. 2.60
6. 1.95
7. 2.26
